Target: UniProtKB P49137
Sequence (P49137 whole entry, looked up): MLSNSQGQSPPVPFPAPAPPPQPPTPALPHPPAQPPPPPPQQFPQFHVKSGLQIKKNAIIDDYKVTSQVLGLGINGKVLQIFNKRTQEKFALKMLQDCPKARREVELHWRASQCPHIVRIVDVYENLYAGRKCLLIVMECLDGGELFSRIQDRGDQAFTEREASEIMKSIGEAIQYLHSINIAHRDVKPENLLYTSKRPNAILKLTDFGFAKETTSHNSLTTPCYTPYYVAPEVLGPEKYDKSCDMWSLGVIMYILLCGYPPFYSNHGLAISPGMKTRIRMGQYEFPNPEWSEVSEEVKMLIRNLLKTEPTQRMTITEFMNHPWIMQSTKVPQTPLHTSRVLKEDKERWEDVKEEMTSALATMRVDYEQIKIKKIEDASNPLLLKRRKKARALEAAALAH
Assay: radiometric filter-binding kinase assay, Kinase HotSpot
Details: compound 0.5 µM; ATP 10 µM
// residual activity lookup, one value per entry
Assay Readout: residual activity (%)

[
  {
    "Smiles Code": "O=C1NC(=O)c2c1c1c3ccccc3[nH]c1c1[nH]c3cc(Br)ccc3c21",
    "Assay Readout": "residual activity",
    "Value Observed": 101
  },
  {
    "Smiles Code": "COc1cc2c(N3CCN(C(=O)Nc4ccc(OC(C)C)cc4)CC3)ncnc2cc1OCCCN1CCCCC1",
    "Assay Readout": "residual activity",
    "Value Observed": 100
  },
  {
    "Smiles Code": "N#C/C(=C1/Nc2ccccc2S1)c1ccnc(NCCc2cccnc2)n1",
    "Assay Readout": "residual activity",
    "Value Observed": 97.8
  },
  {
    "Smiles Code": "O=C(O)c1ccc2c3c1cccc3c(=O)n1c3ccccc3nc21",
    "Assay Readout": "residual activity",
    "Value Observed": 102
  },
  {
    "Smiles Code": "Cc1cc(Nc2nc(-c3ccccc3)nc3ccccc23)n[nH]1",
    "Assay Readout": "residual activity",
    "Value Observed": 100
  }
]

====

Target: LTK (human) (UniProt P29376)
Sequence (P29376 whole entry, looked up): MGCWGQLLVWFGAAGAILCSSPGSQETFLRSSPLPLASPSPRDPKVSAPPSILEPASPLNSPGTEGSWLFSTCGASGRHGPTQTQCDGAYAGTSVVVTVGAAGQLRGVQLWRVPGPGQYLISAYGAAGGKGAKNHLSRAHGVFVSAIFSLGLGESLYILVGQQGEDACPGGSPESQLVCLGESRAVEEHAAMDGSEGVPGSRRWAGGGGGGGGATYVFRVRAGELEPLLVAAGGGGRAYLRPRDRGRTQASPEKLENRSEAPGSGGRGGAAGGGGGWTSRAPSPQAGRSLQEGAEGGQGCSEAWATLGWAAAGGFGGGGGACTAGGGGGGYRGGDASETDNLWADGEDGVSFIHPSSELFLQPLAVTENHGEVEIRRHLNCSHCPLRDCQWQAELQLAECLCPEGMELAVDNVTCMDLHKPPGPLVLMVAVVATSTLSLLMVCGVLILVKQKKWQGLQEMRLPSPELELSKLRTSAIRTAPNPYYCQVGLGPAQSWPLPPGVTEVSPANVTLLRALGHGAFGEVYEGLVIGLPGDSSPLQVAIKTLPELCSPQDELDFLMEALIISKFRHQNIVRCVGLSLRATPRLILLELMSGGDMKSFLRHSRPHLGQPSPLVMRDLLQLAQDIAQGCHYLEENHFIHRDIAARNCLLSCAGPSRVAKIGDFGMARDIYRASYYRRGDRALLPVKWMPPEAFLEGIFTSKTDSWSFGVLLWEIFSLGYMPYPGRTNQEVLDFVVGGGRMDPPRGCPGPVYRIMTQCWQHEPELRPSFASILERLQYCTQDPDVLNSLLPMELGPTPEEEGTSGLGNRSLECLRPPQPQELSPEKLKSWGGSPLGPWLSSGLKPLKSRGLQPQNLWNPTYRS
Assay: radiometric filter-binding kinase assay, Kinase HotSpot
Conditions: compound 0.5 µM; ATP 10 µM
Answer 0.0 if residual activity is under 80%, and 1.0 if it is 80% or more.

[
  {
    "Smiles Code": "COc1cc2c(N3CCN(C(=O)Nc4ccc(OC(C)C)cc4)CC3)ncnc2cc1OCCCN1CCCCC1",
    "Category": 1.0
  },
  {
    "Smiles Code": "COc1cc2c(Nc3ccc(Br)cc3F)ncnc2cc1OCC1CCN(C)CC1",
    "Category": 0.0
  },
  {
    "Smiles Code": "O=C1NC(=O)c2c1c1c3ccccc3[nH]c1c1[nH]c3cc(Br)ccc3c21",
    "Category": 1.0
  },
  {
    "Smiles Code": "O=c1cc(N2CCOCC2)oc2c(-c3ccccc3)cccc12",
    "Category": 1.0
  },
  {
    "Smiles Code": "O=c1c(-c2ccc(F)cc2)c(-c2ccncc2)[nH]n1-c1ccc(Cl)cc1",
    "Category": 0.0
  }
]

====

Target: UniProt Q9UEW8
Experiment: radiometric filter-binding kinase assay, Kinase HotSpot
Details: compound 0.5 µM; ATP 10 µM
Answer not met if residual activity is under 90%, and met if it is 90% or more.

[
  {
    "Smiles Code": "c1ccc(-c2cnc(Nc3ccc(OCCN4CCCC4)cc3)s2)cc1",
    "Category": "not met"
  },
  {
    "Smiles Code": "CCOc1cc2ncnc(Nc3cccc(Br)c3)c2cc1OCC",
    "Category": "met"
  },
  {
    "Smiles Code": "CCc1nc(-c2ccc(OC)cc2)[nH]c1-c1ccncc1",
    "Category": "met"
  },
  {
    "Smiles Code": "N#Cc1c(NC(=O)c2cccc3ccccc23)sc2c1CCCC2",
    "Category": "met"
  },
  {
    "Smiles Code": "O=c1c(-c2ccc(F)cc2)c(-c2ccncc2)[nH]n1-c1ccc(Cl)cc1",
    "Category": "met"
  },
  {
    "Smiles Code": "O=c1c2ccccc2[nH]c(=S)n1CCN1CCC(=C(c2ccc(F)cc2)c2ccc(F)cc2)CC1",
    "Category": "met"
  },
  {
    "Smiles Code": "N#C/C(=C1/Nc2ccccc2S1)c1ccnc(NCCc2cccnc2)n1",
    "Category": "met"
  },
  {
    "Smiles Code": "Cn1cc(/C=C2\\C(=O)Nc3ccc(S(N)(=O)=O)cc32)c2ccccc21",
    "Category": "not met"
  },
  {
    "Smiles Code": "O=C(c1ccccc1)c1ccc(N2CCOCC2)cc1O",
    "Category": "met"
  },
  {
    "Smiles Code": "O=c1cc(N2CCOCC2)oc2c(-c3ccccc3)cccc12",
    "Category": "not met"
  },
  {
    "Smiles Code": "COc1cc2c(N3CCN(C(=O)Nc4ccc(OC(C)C)cc4)CC3)ncnc2cc1OCCCN1CCCCC1",
    "Category": "met"
  },
  {
    "Smiles Code": "N#CCCc1ccc2c(c1)-c1[nH]c3ccc([N+](=O)[O-])cc3c1CC(=O)N2",
    "Category": "met"
  },
  {
    "Smiles Code": "COc1cc2c(cc1OC)-c1[nH]nc(Nc3cccc(F)c3)c1C2",
    "Category": "met"
  },
  {
    "Smiles Code": "COc1cccc(-c2cc(=O)c3ccccc3o2)c1N",
    "Category": "not met"
  },
  {
    "Smiles Code": "Cc1cc(Nc2nc(-c3ccccc3)nc3ccccc23)n[nH]1",
    "Category": "met"
  },
  {
    "Smiles Code": "COc1cc2c(Nc3ccc(Br)cc3F)ncnc2cc1OCC1CCN(C)CC1",
    "Category": "met"
  },
  {
    "Smiles Code": "CCCCc1c(-c2ccc(O)cc2)[nH]c2nccnc12",
    "Category": "not met"
  },
  {
    "Smiles Code": "O=C(O)c1ccc2c3c1cccc3c(=O)n1c3ccccc3nc21",
    "Category": "met"
  }
]

====

Target: DDR2 (human) (UniProt Q16832)
Sequence (Q16832 whole entry, looked up): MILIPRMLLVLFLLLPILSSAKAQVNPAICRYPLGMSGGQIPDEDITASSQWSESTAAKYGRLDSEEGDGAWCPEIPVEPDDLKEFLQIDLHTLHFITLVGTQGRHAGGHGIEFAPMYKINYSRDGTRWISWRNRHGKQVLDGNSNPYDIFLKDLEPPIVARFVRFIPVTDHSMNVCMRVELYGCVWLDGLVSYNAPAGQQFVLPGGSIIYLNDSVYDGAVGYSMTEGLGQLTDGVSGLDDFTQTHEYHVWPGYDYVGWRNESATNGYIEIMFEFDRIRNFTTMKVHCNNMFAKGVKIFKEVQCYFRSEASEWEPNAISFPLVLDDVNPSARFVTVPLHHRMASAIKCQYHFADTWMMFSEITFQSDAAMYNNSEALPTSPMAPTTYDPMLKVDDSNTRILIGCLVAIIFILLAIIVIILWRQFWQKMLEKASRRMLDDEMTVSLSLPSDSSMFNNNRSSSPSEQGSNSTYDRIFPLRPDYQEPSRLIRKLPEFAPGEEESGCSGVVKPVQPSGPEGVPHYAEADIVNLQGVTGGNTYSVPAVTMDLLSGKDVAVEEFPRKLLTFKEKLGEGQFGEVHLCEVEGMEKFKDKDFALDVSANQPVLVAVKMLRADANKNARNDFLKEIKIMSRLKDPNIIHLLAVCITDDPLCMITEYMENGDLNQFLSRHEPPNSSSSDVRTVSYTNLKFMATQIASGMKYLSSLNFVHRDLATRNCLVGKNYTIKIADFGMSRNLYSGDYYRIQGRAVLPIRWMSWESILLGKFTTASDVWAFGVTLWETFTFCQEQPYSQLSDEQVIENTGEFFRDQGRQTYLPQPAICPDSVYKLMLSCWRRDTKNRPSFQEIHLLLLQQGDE
Assay: radiometric filter-binding kinase assay, Kinase HotSpot
Settings: compound 0.5 µM; ATP 10 µM
// residual activity lookup, one value per entry

[
  {
    "Smiles Code": "Nc1ncnc2c1cnn2-c1ccccc1",
    "Unit Text": "%",
    "residual activity": 92.3
  },
  {
    "Smiles Code": "N#C/C(=C1/Nc2ccccc2S1)c1ccnc(NCCc2cccnc2)n1",
    "Unit Text": "%",
    "residual activity": 94.5
  },
  {
    "Smiles Code": "CCCCc1c(-c2ccc(O)cc2)[nH]c2nccnc12",
    "Unit Text": "%",
    "residual activity": 96
  },
  {
    "Smiles Code": "FC(F)(F)c1ccc(/C=C/c2nc(COc3ccc(CCCCn4ccnn4)cc3)co2)cc1",
    "Unit Text": "%",
    "residual activity": 101
  },
  {
    "Smiles Code": "O=S(=O)(NCCNC/C=C/c1ccc(Br)cc1)c1cccc2cnccc12",
    "Unit Text": "%",
    "residual activity": 93.8
  },
  {
    "Smiles Code": "N/C(=N\\N=C/c1ccc(-c2cccc([N+](=O)[O-])c2)o1)N[N+](=O)[O-]",
    "Unit Text": "%",
    "residual activity": 101
  },
  {
    "Smiles Code": "O=c1c2ccccc2[nH]c(=S)n1CCN1CCC(=C(c2ccc(F)cc2)c2ccc(F)cc2)CC1",
    "Unit Text": "%",
    "residual activity": 97.6
  }
]

====

Target: FGR (human)
Experiment: radiometric filter-binding kinase assay, Kinase HotSpot
Conditions: compound 0.5 µM; ATP 10 µM
// residual activity lookup, one value per entry
Assay Readout: residual activity (%)

[
  {
    "Smiles Code": "O=c1c(-c2ccc(F)cc2)c(-c2ccncc2)[nH]n1-c1ccc(Cl)cc1",
    "Value Observed": 87.4
  },
  {
    "Smiles Code": "O=c1c2ccccc2[nH]c(=S)n1CCN1CCC(=C(c2ccc(F)cc2)c2ccc(F)cc2)CC1",
    "Value Observed": 95.4
  },
  {
    "Smiles Code": "CCOc1cc2ncnc(Nc3cccc(Br)c3)c2cc1OCC",
    "Value Observed": 61.9
  },
  {
    "Smiles Code": "O=C1NC(=O)c2cc(Nc3ccc(F)cc3)c(Nc3ccc(F)cc3)cc21",
    "Value Observed": 96.3
  },
  {
    "Smiles Code": "CCCCc1c(-c2ccc(O)cc2)[nH]c2nccnc12",
    "Value Observed": 63
  },
  {
    "Smiles Code": "O=c1cc(N2CCOCC2)oc2c(-c3ccccc3)cccc12",
    "Value Observed": 97.5
  },
  {
    "Smiles Code": "O=c1[nH]c2ccccc2n1C1CCN(Cc2ccc(-c3nc4cc5[nH]cnc5cc4nc3-c3ccccc3)cc2)CC1",
    "Value Observed": 95.7
  },
  {
    "Smiles Code": "COc1cc2c(N3CCN(C(=O)Nc4ccc(OC(C)C)cc4)CC3)ncnc2cc1OCCCN1CCCCC1",
    "Value Observed": 94
  },
  {
    "Smiles Code": "c1ccc(-c2cnc(Nc3ccc(OCCN4CCCC4)cc3)s2)cc1",
    "Value Observed": 65.7
  },
  {
    "Smiles Code": "COc1cccc(-c2cc(=O)c3ccccc3o2)c1N",
    "Value Observed": 94.8
  },
  {
    "Smiles Code": "N#C/C(=C1/Nc2ccccc2S1)c1ccnc(NCCc2cccnc2)n1",
    "Value Observed": 86.1
  },
  {
    "Smiles Code": "Nc1ncnc2c1cnn2-c1ccccc1",
    "Value Observed": 93.8
  },
  {
    "Smiles Code": "COc1cc2c(Nc3ccc(Br)cc3F)ncnc2cc1OCC1CCN(C)CC1",
    "Value Observed": 30
  },
  {
    "Smiles Code": "O=C(c1ccccc1)c1ccc(N2CCOCC2)cc1O",
    "Value Observed": 104
  },
  {
    "Smiles Code": "CCc1nc(-c2ccc(OC)cc2)[nH]c1-c1ccncc1",
    "Value Observed": 97.2
  },
  {
    "Smiles Code": "O=C1NC(=O)c2c1c1c3ccccc3[nH]c1c1[nH]c3cc(Br)ccc3c21",
    "Value Observed": 88.8
  },
  {
    "Smiles Code": "N#CCCc1ccc2c(c1)-c1[nH]c3ccc([N+](=O)[O-])cc3c1CC(=O)N2",
    "Value Observed": 31
  },
  {
    "Smiles Code": "COc1cc2c(cc1OC)-c1[nH]nc(Nc3cccc(F)c3)c1C2",
    "Value Observed": 47.2
  },
  {
    "Smiles Code": "O=S(=O)(NCCNC/C=C/c1ccc(Br)cc1)c1cccc2cnccc12",
    "Value Observed": 106
  },
  {
    "Smiles Code": "Cc1cc(Nc2nc(-c3ccccc3)nc3ccccc23)n[nH]1",
    "Value Observed": 54.8
  },
  {
    "Smiles Code": "Cn1cc(/C=C2\\C(=O)Nc3ccc(S(N)(=O)=O)cc32)c2ccccc21",
    "Value Observed": 28.4
  }
]

Cited source: the kinase profiling compilation of Christmann-Franck et al. (2016)
